# test_target: β-lactamase (Citrobacter freundii, UniProt P05193)
# Construct: Various β-lactamases can be isolated from penicillin- or cephalosporin-resistant bacterial strains such as; endogenous in cells; host or cells: Citrobacter freundii 1203 (enzyme purified from the crude cell extract, after ampicillin induction when necessary)
# Sequence (P05193 21-381): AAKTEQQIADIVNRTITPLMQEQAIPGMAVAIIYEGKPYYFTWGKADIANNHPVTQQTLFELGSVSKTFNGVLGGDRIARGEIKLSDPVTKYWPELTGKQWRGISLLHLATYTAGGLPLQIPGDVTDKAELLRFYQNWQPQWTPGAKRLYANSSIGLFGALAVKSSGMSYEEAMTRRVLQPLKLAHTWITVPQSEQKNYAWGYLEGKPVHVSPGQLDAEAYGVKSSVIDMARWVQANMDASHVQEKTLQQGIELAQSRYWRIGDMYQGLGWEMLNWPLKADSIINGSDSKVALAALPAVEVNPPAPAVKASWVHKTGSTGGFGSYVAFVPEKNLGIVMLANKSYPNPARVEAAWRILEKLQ
# assay_name: biochemical
# reported_conditions: IC 50 nM, isolated β-lactamase of Citrobacter freundii; substrate nitrocefin 0.1 mM; 15 minutes pre-incubation with inhibitor; 37° C., pH 7.0
Counter-ions that a name gives are not always drawn.
measurement_kind: log10 IC50 (log10 of the value in nM)
Values are log10 of IC50 in nM.

[ask] Would you kindly share the measured log10 IC50 for O=C(/C=C/c1ccc(O)cc1)N1CC[C@@H]2[C@H]1C(=O)N2S(=O)(=O)O [6(t), sodium salt] ?
[reply] 1.08

[ask] GET /values?readout=log10 IC50&item= O=C(CNc1ccccc1)N1CC[C@@H]2[C@H]1C(=O)N2S(=O)(=O)[O-].[Na+] [5(b), sodium salt]
[reply] 2.04

[ask] Could you tell me which log10 IC50 is on file for O=C(NCc1ccccc1)N1CC[C@@H]2[C@H]1C(=O)N2S(=O)(=O)O [Example 3, sodium salt] ?
[reply] 2.52

[ask] Recorded log10 IC50 of O=C(NCc1ccccn1)N1CC[C@@H]2[C@H]1C(=O)N2S(=O)(=O)[O-].[Na+] [17(c), sodium salt] , please.
[reply] 2.60

[ask] Which log10 IC50 value is on record for O=C(/C=C/c1c[nH]cn1)N1CC[C@@H]2[C@H]1C(=O)N2S(=O)(=O)[O-].[Na+] [8(d), sodium salt] ?
[reply] 1.53

[ask] # query: log10 IC50 of entry O=C(/C=C/c1cc[nH]n1)N1CC[C@@H]2[C@H]1C(=O)N2S(=O)(=O)[O-].[Na+] [23(e), sodium salt]
[reply] 2.14

[ask] Look up log10 IC50: Cn1nnnc1S[C@@H]1CN(C(=O)OCc2ccccc2)[C@@H]2C(=O)N(S(=O)(=O)O)[C@@H]21 [Example 22, sodium salt]
[reply] 2.34

[ask] Given the entry CC(C)=C[C@@H]1[C@@H](C(=O)N2CC[C@@H]3[C@H]2C(=O)N3S(=O)(=O)[O-])C1(C)C.[Na+] [23(h), sodium salt] , report its measured log10 IC50.
[reply] 2.96

[ask] Can you look up the measured log10 IC50 of O=C(OCc1ccccc1)N1C[C@H](F)[C@@H]2[C@H]1C(=O)N2S(=O)(=O)O [16(a), sodium salt] for me?
[reply] 1.15

[ask] State the recorded log10 IC50 for this entry: COc1cc(CNC(=O)N2CC[C@@H]3[C@H]2C(=O)N3S(=O)(=O)[O-])on1.[Na+] [17(aa), sodium salt]
[reply] 1.88

[ask] Tell me the measured log10 IC50 of NS(=O)(=O)c1ccc(CNC(=O)N2CC[C@@H]3[C@H]2C(=O)N3S(=O)(=O)[O-])cc1.[Na+] [17(g), sodium salt] , please.
[reply] 2.63

[ask] Form field: reported log10 IC50 of O=C(COc1ccc(O)nn1)N1CC[C@@H]2[C@H]1C(=O)N2S(=O)(=O)[O-].[Na+] [5(p), sodium salt]
[reply] 2.25

[ask] Could you share which log10 IC50 value was measured for O=C(OCc1ccccc1)N1C[C@@H](Cl)[C@@H]2[C@H]1C(=O)N2S(=O)(=O)O [Example 15, sodium salt] ?
[reply] 2.80

[ask] Name the recorded log10 IC50 for Cc1nnc(SCC(=O)N2CC[C@@H]3[C@H]2C(=O)N3S(=O)(=O)[O-])s1.[Na+] [5(m), sodium salt] .
[reply] 1.38
